The measurements presented in this section are drawn from the supplement of paper PMC10724198.

Tested on: Saccharomyces cerevisiae
Experiment: protein stability index of tFT-peptide fusion (C-terminal peptide) (PSI (0-1 scale)); higher = more stable (slower turnover)
Conditions: genetic background: cdc53-1; temperature: 37 C
Catalogue of sequences with associated protein stability index
quantity kind: protein stability index

- sequence input: "GCFVDRVYVVVV"
  quantity kind: "protein stability index"
  reported value: 0.543
- sequence input: "TPVIPLIRVRDC"
  quantity kind: "protein stability index"
  reported value: 0.701
- sequence input: "VLVSVSLRVCMV"
  quantity kind: "protein stability index"
  reported value: 0.101
- sequence input: "TTGLLPSAYIWS"
  quantity kind: "protein stability index"
  reported value: 0.753
- sequence input: "STSSVMVFLRMC"
  quantity kind: "protein stability index"
  reported value: 0.681
- sequence input: "SLIVLRSIAVLD"
  quantity kind: "protein stability index"
  reported value: 0.505
- sequence input: "SRLVSRLGLYLS"
  quantity kind: "protein stability index"
  reported value: 0.71
- sequence input: "ATLWVWCFSSHV"
  quantity kind: "protein stability index"
  reported value: 0.642

====

System: Saccharomyces cerevisiae
Assay: protein stability index of tFT-peptide fusion (C-terminal peptide) (PSI (0-1 scale)); higher = more stable (slower turnover)
Settings: genetic background: wild type; temperature: 30 C

- sequence input: "PPSWASLRLPPT"
  protein stability index: 0.708
- sequence input: "QHVDRFVGVNRE"
  protein stability index: 0.715
- sequence input: "QQRVKTYHELHL"
  protein stability index: 0.712
- sequence input: "VCESAGERVMGG"
  protein stability index: 0.705
- sequence input: "PMMTKDEFNNRM"
  protein stability index: 0.702
- sequence input: "PTRFLPVPSLFS"
  protein stability index: 0.679
- sequence input: "KMSEERIGIEKN"
  protein stability index: 0.704
- sequence input: "WSVHGLGSVSIY"
  protein stability index: 0.707
- sequence input: "RSFPPPPARSLP"
  protein stability index: 0.711
- sequence input: "NGKKYWQEYGWG"
  protein stability index: 0.686
- sequence input: "PPFTPLPPSVPP"
  protein stability index: 0.686
- sequence input: "KIMIRKIEIKKE"
  protein stability index: 0.69
- sequence input: "TRAGRGGCASQD"
  protein stability index: 0.701
- sequence input: "GAVAAVPRGGIL"
  protein stability index: 0.715
- sequence input: "LPASSPTEYPPP"
  protein stability index: 0.713

====

Measured protein stability index accompanies every entry in the list below.
Test system: Saccharomyces cerevisiae
Test: protein stability index of tFT-peptide fusion (C-terminal peptide) (PSI (0-1 scale)); higher = more stable (slower turnover)
Details: genetic background: wild type; temperature: 30 C

- sequence input: "ASHPESHIAWPA"
  protein stability index: 0.691
- sequence input: "FFPSFVLSFPCL"
  protein stability index: 0.641
- sequence input: "PPVLAPHLCFPP"
  protein stability index: 0.724
- sequence input: "QVGTHVTLCEDP"
  protein stability index: 0.679
- sequence input: "EFFILYFFLKVL"
  protein stability index: 0.199
- sequence input: "SEVMVGLRLTLN"
  protein stability index: 0.416
- sequence input: "CFFPFLCFVVGA"
  protein stability index: 0.445
- sequence input: "AFFSFLFSNSFL"
  protein stability index: 0.664
- sequence input: "PRPPPPRIPRPD"
  protein stability index: 0.7
- sequence input: "GRVVLRISCAQI"
  protein stability index: 0.614
- sequence input: "PLSRVEGRVPAI"
  protein stability index: 0.666
- sequence input: "GESGGGAVGGGW"
  protein stability index: 0.64
- sequence input: "CGGFGGLYVVVF"
  protein stability index: 0.545
- sequence input: "ESKERKTRKLKK"
  protein stability index: 0.677

====

System: Saccharomyces cerevisiae
Assay: protein stability index of tFT-peptide fusion in wild type (PSI (0-1 scale)); higher = more stable (slower turnover)
Conditions: genetic background: wild type
quantity kind: protein stability index

- sequence input: "PSDAASFWRVVG"
  reported value: 0.187
- sequence input: "AITLPMNPLLLR"
  reported value: 0.392
- sequence input: "PSLAASFWRVVGI"
  reported value: 0.667
- sequence input: "VRSAVGGWRLVG"
  reported value: 0.141
- sequence input: "GLYMCSVGCCFR"
  reported value: 0.611
- sequence input: "VMGAVGGWRLVG"
  reported value: 0.118
- sequence input: "LVVMLSCVACIN"
  reported value: 0.0128
- sequence input: "RLIQPLPRQFLN"
  reported value: 0.19
- sequence input: "RLIQPLPVQLLN"
  reported value: 0.0606
- sequence input: "PDKRNHLIKVLN"
  reported value: 0.186
- sequence input: "GLGMCSVGCWFR"
  reported value: 0.336
- sequence input: "LKLLRQKMNHQN"
  reported value: 0.208
- sequence input: "CTSCGYKFRTNNA"
  reported value: 0.698
- sequence input: "YSLAASFWRVVG"
  reported value: 0.128
- sequence input: "FSMRWTFEYWVN"
  reported value: 0.0782
- sequence input: "ARWRVGLWRGASC"
  reported value: 0.628
- sequence input: "AITLPMCPILLR"
  reported value: 0.216
- sequence input: "GEYMCSVGCWFR"
  reported value: 0.425
- sequence input: "AITPPMCPLLLR"
  reported value: 0.458
- sequence input: "RSLIVLLPLYFR"
  reported value: 0.288
- sequence input: "PSLAAKFWRVVG"
  reported value: 0.149
- sequence input: "RCLRVLLPLYFR"
  reported value: 0.257
- sequence input: "CTSCGYKFRLNN"
  reported value: 0.35
- sequence input: "AITLPMCPLLLRL"
  reported value: 0.12
- sequence input: "KKHKKGQKQKIY"
  reported value: 0.255
- sequence input: "GRGAVGGWRLVG"
  reported value: 0.19
- sequence input: "ARWRVTLWRGAS"
  reported value: 0.382
- sequence input: "CLVSLPILLFFRP"
  reported value: 0.068
- sequence input: "RHIQPLPVQFLN"
  reported value: 0.167
- sequence input: "VRGAVGGERLVG"
  reported value: 0.65
- sequence input: "VRKAVGGWRLVG"
  reported value: 0.18
- sequence input: "CLVSLPHLLFFR"
  reported value: 0.0749
- sequence input: "VRGAVGGWRLVI"
  reported value: 0.215
- sequence input: "GLYMGSVGCWFR"
  reported value: 0.303
- sequence input: "VRGAAGGWRLVG"
  reported value: 0.164
- sequence input: "RVTRLDVIYFRI"
  reported value: 0.3
- sequence input: "LKILAQKMNHQN"
  reported value: 0.229
- sequence input: "KKHKYGQKQKIN"
  reported value: 0.067
- sequence input: "RSLRVLLPLVFR"
  reported value: 0.356
- sequence input: "CTSCGYMFRTNN"
  reported value: 0.357
- sequence input: "FSMRWTFRYWHN"
  reported value: 0.149
- sequence input: "PSLAASDWRVVG"
  reported value: 0.627
- sequence input: "FSMRWTFRYIVN"
  reported value: 0.202
- sequence input: "CTSCGFKFRTNN"
  reported value: 0.486
- sequence input: "LKILRQKMNHQNP"
  reported value: 0.678
- sequence input: "KKHLKGQKQKIN"
  reported value: 0.0828
- sequence input: "LPVYLSCVACIN"
  reported value: 0.055
- sequence input: "RLIVPLPVQFLN"
  reported value: 0.0525
- sequence input: "VRGAVGGWNLVG"
  reported value: 0.198
- sequence input: "CLVSLPGLLFFR"
  reported value: 0.126
- sequence input: "AITLPHCPLLLR"
  reported value: 0.264
- sequence input: "CTSCGYKFRTNE"
  reported value: 0.726
- sequence input: "AITLPDCPLLLR"
  reported value: 0.437
- sequence input: "VRGAVGGWRLVGH"
  reported value: 0.668
- sequence input: "KDHKKGQKQKIN"
  reported value: 0.0956
- sequence input: "GLYMCSVGCWFRA"
  reported value: 0.225
- sequence input: "LVVYLSCVACIC"
  reported value: 0.0144
- sequence input: "AITLPMCPLCLR"
  reported value: 0.556
- sequence input: "GPYMCSVGCWFR"
  reported value: 0.413

====

protein stability index for assorted sequences
Tested on: Saccharomyces cerevisiae
Assay: protein stability index of tFT-peptide fusion in wild type (PSI (0-1 scale)); higher = more stable (slower turnover)
Conditions: genetic background: wild type

- sequence input: "GTYMCSVGCWFR"
  protein stability index: 0.344
- sequence input: "GLYWCSVGCWFR"
  protein stability index: 0.246
- sequence input: "RVTRLFAIYFRI"
  protein stability index: 0.177
- sequence input: "CTSCGYKYRTNN"
  protein stability index: 0.295
- sequence input: "RVTRLDAIYFRM"
  protein stability index: 0.422
- sequence input: "LKILRQKMNHQND"
  protein stability index: 0.675
- sequence input: "RSLRVLLPLQFR"
  protein stability index: 0.472
- sequence input: "FSMRWTCRYWVN"
  protein stability index: 0.0505
- sequence input: "ARWRVGLWRGASS"
  protein stability index: 0.593
- sequence input: "PDKRNHLIKLEN"
  protein stability index: 0.611
- sequence input: "VRGAVGGCRLVG"
  protein stability index: 0.633
- sequence input: "RVTRLDHIYFRI"
  protein stability index: 0.281
- sequence input: "LKILRQVMNHQN"
  protein stability index: 0.315
- sequence input: "RSLRVLLPLYFRS"
  protein stability index: 0.3
- sequence input: "CLVSLPILLQFR"
  protein stability index: 0.344
- sequence input: "ARWRQGLWRGAS"
  protein stability index: 0.678
- sequence input: "AITLPMCPTLLR"
  protein stability index: 0.581
- sequence input: "PDKRNHLIRLLN"
  protein stability index: 0.144
- sequence input: "LKILRQKMNHQNA"
  protein stability index: 0.658
- sequence input: "GLYMCSVHCWFR"
  protein stability index: 0.371
- sequence input: "LFILRQKMNHQN"
  protein stability index: 0.126
- sequence input: "VRGAVGGWRLVGL"
  protein stability index: 0.665
- sequence input: "CTSCGYKFCTNN"
  protein stability index: 0.377
- sequence input: "GLYMCTVGCWFR"
  protein stability index: 0.219
- sequence input: "VSLRVLLPLYFR"
  protein stability index: 0.283
- sequence input: "RSLRVLLPLYMR"
  protein stability index: 0.326
- sequence input: "AITLPMCPLLLP"
  protein stability index: 0.627
- sequence input: "RSLRVLLPCYFR"
  protein stability index: 0.409
- sequence input: "KKCKKGQKQKIN"
  protein stability index: 0.102
- sequence input: "CTSCGYKFRTNM"
  protein stability index: 0.156
- sequence input: "VRGLVGGWRLVG"
  protein stability index: 0.154
- sequence input: "RVTRYDAIYFRI"
  protein stability index: 0.332
- sequence input: "RVTRLDAIYFRIC"
  protein stability index: 0.0626
- sequence input: "FSMRLTFRYWVN"
  protein stability index: 0.0555
- sequence input: "RSLRVLLALYFR"
  protein stability index: 0.287
- sequence input: "RSMRWTFRYWVN"
  protein stability index: 0.0703
- sequence input: "PSLADSFWRVVG"
  protein stability index: 0.586
- sequence input: "ALTLPMCPLLLR"
  protein stability index: 0.21
- sequence input: "GLYMCSVGYWFR"
  protein stability index: 0.213
- sequence input: "RVTRTDAIYFRI"
  protein stability index: 0.499
- sequence input: "RVTRLDAIVFRI"
  protein stability index: 0.534
- sequence input: "RLIQPLPVQFLNQ"
  protein stability index: 0.65
- sequence input: "PDKMNHLIKLLN"
  protein stability index: 0.111
- sequence input: "VRGAVGGWRLQG"
  protein stability index: 0.153
- sequence input: "ELYMCSVGCWFR"
  protein stability index: 0.388
- sequence input: "LVVYLSCVACINT"
  protein stability index: 0.0205
- sequence input: "ARWRVGLWRGAE"
  protein stability index: 0.644
- sequence input: "VRGAVGGWRLLG"
  protein stability index: 0.164
- sequence input: "RSLRQLLPLYFR"
  protein stability index: 0.466
- sequence input: "CLVSLPILKFFR"
  protein stability index: 0.63
- sequence input: "LVVYLSCVALIN"
  protein stability index: 0.0158
- sequence input: "RVTRNDAIYFRI"
  protein stability index: 0.552
- sequence input: "KKHKKGQKQKRN"
  protein stability index: 0.5
- sequence input: "SVVYLSCVACIN"
  protein stability index: 0.0146
- sequence input: "ARWRVGLWRGAK"
  protein stability index: 0.669
- sequence input: "RLPQPLPVQFLN"
  protein stability index: 0.118
- sequence input: "LKILRQKMNHQR"
  protein stability index: 0.67
- sequence input: "VEGAVGGWRLVG"
  protein stability index: 0.159
- sequence input: "RSLRVLLPLGFR"
  protein stability index: 0.482
- sequence input: "DRWRVGLWRGAS"
  protein stability index: 0.413
- sequence input: "LNILRQKMNHQN"
  protein stability index: 0.121
- sequence input: "PSLAASFWCVVG"
  protein stability index: 0.47
